Data provenance is paper PMC12540922.

Catalogue of compounds with associated solubility
test: Solubility of hop compounds in aqueous media (HPLC of supernatant); type: physicochemical; conditions: culture media DMEM, NB and TSB, aqueous with cosolvent or surfactant or cyclodextrin, kinetic from dmso stock; in the media selected (DMEM, NB, TSB), 10% (v/v) ethanol; read-out: Solubility limit

| compound | value.type | result |
| --- | --- | --- |
| CC(C)=CCC1C(=O)C(C(=O)CC(C)C)=C(O)C(O)(CC=C(C)C)C1=O (centres unmarked) | solubility | ~1000 µg/mL |

Let us examine a further case.
Dear colleague, please send me the reported solubility for CC(C)=CCC1=C(O)C(C(=O)CC(C)C)=C(O)C(CC=C(C)C)(CC=C(C)C)C1=O when you can. ~1000 µg/mL
